Just for reference, PubChem BioAssay (NCI) is where these values come from.

Test system: OVCAR-4 ovarian
procedure-summary: NCI tumour cell line growth inhibition, 48 h
value-type: TGI

molecule=O=c1c(-c2ccccc2)nnc2n(Cc3ccccc3)c3ccccc3n12 target_desc="OVCAR-4 ovarian" value_type=TGI result="> 100 µM"
molecule=O=c1[nH]c2[nH]c(=S)[nH]c(=S)c2[nH]1 target_desc="OVCAR-4 ovarian" value_type=TGI result="> 100 µM"
molecule=CNCc1ccc(-c2cc(-c3nc(-c4ccc(S(=O)(=O)C(C)C)cc4)cnc3N)on2)cc1 target_desc="OVCAR-4 ovarian" value_type=TGI result="22.8 µM"
molecule=Cc1[nH]n(-c2nc3c(c(=O)[nH]2)CCCC3)c(=O)c1CCO target_desc="OVCAR-4 ovarian" value_type=TGI result="> 100 µM"
molecule=CN=c1sc2c(n1C)C(=O)c1ccccc1C2=O target_desc="OVCAR-4 ovarian" value_type=TGI result="11 µM"
molecule="O=NN(CCCl)C(=O)NC1CCC(CC(=O)O)CC1 (stereo unspecified)" target_desc="OVCAR-4 ovarian" value_type=TGI result="> 100 µM"
molecule=CCOC(=O)C1S(=O)(=O)OCCOS1(=O)=O target_desc="OVCAR-4 ovarian" value_type=TGI result="> 100 µM"
molecule="CC(=O)Nc1ccc(C2CC(c3ccc([N+](=O)[O-])cc3)=Nc3ccccc3S2=O)cc1 (stereo unspecified)" target_desc="OVCAR-4 ovarian" value_type=TGI result="39.8 µM"
molecule=C1CCC(N=C2N(C3CCCCC3)C(=NC3CCCCC3)N2C2CCCCC2)CC1 target_desc="OVCAR-4 ovarian" value_type=TGI result="> 100 µM"
molecule="O=C1CC(c2cccc(Cl)c2)Nc2ccc(N3CCCC3)cc21 (stereo unspecified)" target_desc="OVCAR-4 ovarian" value_type=TGI result="> 100 µM"
molecule=O=C(NCCN(CCNC(=O)c1cccc(O)c1O)CCNC(=O)c1cccc(O)c1O)c1cccc(O)c1O target_desc="OVCAR-4 ovarian" value_type=TGI result="> 100 µM"
